# Test system: UACC-62
# assay-method-text: NCI tumour cell line growth inhibition, 48 h
Activity calls are given as the source filed them. Cut-off read from the data, not from the text of the source: active = GI50 up to about 1.1 µM and inactive = higher.
Outcome codes: active, inactive

>>> class_label("COC(=O)c1cc2c(cc1O)[C@@H](NC(C)=O)CCc1cc(OC)c(OC)c(OC)c1-2")
"active"
>>> class_label("CCOC(=O)C1=C(C)N(c2ccc(Cl)cc2)C2(O)C=CC(O)=C3C(=O)c4ccccc4C(=O)C312 (centres undefined)")
"inactive"
>>> class_label("CCOC(=O)CN1CC(C2=C(O)CN(CC(=O)OCC)C2=O)=CC1=O")
"inactive"
>>> class_label("NS(=O)(=O)c1nnc(NC(=O)N(c2ccccc2)c2ccccc2)s1")
"inactive"

* * *

Listing: GI50 of selected compounds
# System: NCI-H522
# assay-method-text: NCI tumour cell line growth inhibition, 48 h
Active and inactive are the calls of the source. No stated cut-off is given here; in the data, active = GI50 up to about 1.1 µM and inactive = higher.
property-label: GI50

>>> observed_result("CCOc1ccc(Nc2nc(C)c(C(=O)/C=C/c3ccc(Cl)cc3Cl)s2)cc1")
"21.1 µM (inactive)"
>>> observed_result("N#C/C(=C/c1ccsc1)C(=O)c1ccccc1")
"> 100 µM (inactive)"
>>> observed_result("Clc1ccc(Cl)c(NNc2cc(Cl)ccc2Cl)c1")
"3.68 µM (inactive)"
>>> observed_result("NC1c2c(Cl)sc(Cl)c2C(=O)C1O (stereo unspecified)")
"18.2 µM (inactive)"
>>> observed_result("O=C(/C=C/c1ccccc1)c1cc(Br)ccc1O")
"12.5 µM (inactive)"
>>> observed_result("c1ccc(/N=c2\\snc3scc(-c4ccccc4)n23)cc1")
"18.7 µM (inactive)"

* * *

# Test system: IGROV-1
# assay-method-text: NCI tumour cell line growth inhibition, 48 h
The source made the active and inactive calls. No stated cut-off is given here; in the data, active = GI50 up to about 1.1 µM and inactive = higher.
Outcome codes: true = active, false = inactive

>>> class_label("O=C(/C=C/C1C(=O)NC(=O)NC1=O)CC(=O)C(=O)Nc1cc(Cl)c(Cl)cc1Cl")
"false"
>>> class_label("O=C(NCCCCNCCCNC(=O)OCc1ccccc1)OCc1ccccc1")
"false"
>>> class_label("CC(=O)O[C@H]1CCn2c3c(c(C)c21)C(=O)C(N1CC1)=C(C)C3=O")
"false"
>>> class_label("O=c1[nH]nc(Cc2ccccc2)n1Nc1ccccc1")
"false"
>>> class_label("CC(C)(C)OC(=O)N(CCCN)CCCCN(CCCN)C(=O)OC(C)(C)C")
"false"
>>> class_label("CCN(CC)C(=O)Cc1c(C(=O)N(CC)CC)c(=O)nc2sccn12")
"false"
>>> class_label("NC(=S)Nc1ccc2c(c1)oc1ccccc12")
"false"
>>> class_label("COC(=O)/C(=N\\O)C(C(=O)C=C(C)C)C(=O)C(=O)Nc1ccccc1C (stereo unspecified)")
"false"
>>> class_label("CCOC(=O)NNC1(SC)NC(=O)c2c(cc(Cl)oc2=O)O1 (stereo unspecified)")
"false"
>>> class_label("C=C(C(=O)OC)N1C(=O)CC(C)C1=O (stereo unspecified)")
"false"
>>> class_label("CCC/C(Cl)=N\\OC(=O)Nc1ccc(F)cc1")
"false"
>>> class_label("CN1CSC(=S)N(c2c3ccccc3nc3ccc(Br)cc23)C1")
"false"
>>> class_label("Cc1cc2c(ccc3c(C)cc(=O)oc32)o1")
"false"
>>> class_label("CCOC(=O)NC(NCC(O)c1ccccc1)(C(F)(F)F)C(F)(F)F (stereo unspecified)")
"false"
>>> class_label("COc1ccc2c(CCNC(=O)/C=C/c3ccccc3)c(C(C)=O)[nH]c2c1[N+](=O)[O-]")
"false"
>>> class_label("Cc1c(F)c(N)c2c(=O)cc(-c3ccc(NC(=O)[C@@H](N)CCCCN)c(F)c3)oc2c1F")
"true"
>>> class_label("CN1C(=O)CN2C(Cl)(Cl)C2(c2ccccc2F)c2cc([N+](=O)[O-])ccc21 (stereo unspecified)")
"false"
>>> class_label("COc1ccc(C(O)CC(O)(C(F)(F)F)C(F)(F)F)cc1 (stereo unspecified)")
"false"
>>> class_label("CSC(SC)=C(C#N)C(=O)Nc1ccc(C)cc1")
"false"
>>> class_label("C=CC1C2=C(C(=O)NCC2)C2OC(O)C3=C(CCNC3=O)C2C1C (stereo unspecified)")
"false"
>>> class_label("C/C1=C\\[C@H](C)C[C@H](C)OC(=O)C[C@H](c2ccc(O)cc2)NC(=O)[C@@H](Cc2c(Br)[nH]c3ccccc23)N(C)C(=O)[C@H](C)NC(=O)[C@@H](C)C1 [JASPAMIDE]")
"true"
>>> class_label("O=C(Nc1ccccc1-c1nc2ccccc2[nH]c1=O)c1ccccc1")
"false"
>>> class_label("Fc1ccc(F)c(/C=N/C23CC4CC(CC(C4)C2)C3)c1")
"false"
>>> class_label("Fc1cccc(F)c1C(Nc1nncs1)Nc1nncs1")
"false"
>>> class_label("O=C(c1ccccc1)c1ccc2cccc(OC3OC(CO)C(O)C(O)C3O)c2n1 (stereo unspecified)")
"false"
>>> class_label("C=C(C)CNCCN")
"false"
